Target: T1, GST-MPK3 (Arabidopsis thaliana, UniProt Q39023 1-370)
T1 sequence (looked up): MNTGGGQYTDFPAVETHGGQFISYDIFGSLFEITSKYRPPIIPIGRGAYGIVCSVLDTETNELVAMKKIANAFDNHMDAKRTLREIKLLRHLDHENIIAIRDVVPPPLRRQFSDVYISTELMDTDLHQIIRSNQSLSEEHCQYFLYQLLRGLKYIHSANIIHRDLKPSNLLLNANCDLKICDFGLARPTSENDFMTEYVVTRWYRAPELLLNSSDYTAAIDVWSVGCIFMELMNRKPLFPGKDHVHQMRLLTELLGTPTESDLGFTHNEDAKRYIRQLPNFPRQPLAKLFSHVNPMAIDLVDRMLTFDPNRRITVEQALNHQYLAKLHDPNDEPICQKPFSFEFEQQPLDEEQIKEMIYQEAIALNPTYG
Assay: BLI
Ends that are not written are not given here.
MEASURED PARAMETER: Kd (µM)
Respond with the bare value in µM.

Entry ASSGAQPTLFQKRAAMRQ (also: biotinylated, position not given here) [KRAAM motif peptide, biotinylated] , Kd reported as 2.8
